A collection of compounds and their measured pest or weed control at 2 ppm
- System: Aedes aegypti
- Protocol Description: 12 well plate knockdown test
- Assay type: in vivo
- Assay Conditions: 1 h, Rate 2 PPM, read-out: Aedes aegypti 1 hour % KD
API: value field is a number in %; no unit string.

{"columns": ["Record Smiles", "Result Units", "Reported"],
 "data": [
  ["CO/N=C(\\C)CNC(=O)c1cnccc1C(F)(F)F", "%", 100],
  ["C=CCONC(=O)c1cnccc1C(F)(F)F", "%", 0],
  ["CCOC(=O)ON(C)C(=O)c1cnccc1C(F)(F)F", "%", 100],
  ["N/C(=N/C(=O)c1cnccc1C(F)(F)F)c1ncccn1", "%", 100]
]}

INPUT: Returns the measured pest or weed control at 2 ppm for the input compound. Input: CSCC/C(N)=N\C(=O)c1cnccc1C(F)(F)F
OUTPUT: 0

====

- System: Aedes aegypti
- Protocol Description: 12 well plate knockdown test
- Format: in vivo
- Assay Conditions: 1 h, Rate 2 PPM, read-out: Aedes aegypti 1 hour % KD
Experimental Endpoint: pest or weed control at 2 ppm (%)
Hi! Could you send only the number? It should be in %, unit omitted.

Here is how some compounds turned out for pest or weed control at 2 ppm.
{"columns": ["Compound", "Experimental Endpoint", "Result Units", "Reported"],
 "data": [
  ["O=C(NC(=O)c1cnccc1C(F)(F)F)c1cccs1", "pest or weed control at 2 ppm", "%", 100],
  ["CCCN1CN=C(c2cnccc2C(F)(F)F)OC1=O", "pest or weed control at 2 ppm", "%", 60],
  ["CN(C)C(=O)c1cnccc1C(F)(F)F", "pest or weed control at 2 ppm", "%", 100]
]}

INPUT: Reported pest or weed control at 2 ppm for N/C(=N/C(=O)c1cnccc1C(F)(F)F)C1CC1 : what is it?
OUTPUT: 100

INPUT: Find the recorded pest or weed control at 2 ppm belonging to FC(F)(F)c1ccncc1C1=NCCN1 and report it.
OUTPUT: 40

INPUT: Please look up its pest or weed control at 2 ppm: CC(C)NOC(=O)c1cnccc1C(F)(F)F
OUTPUT: 100

INPUT: # input compound: COCCOC(=O)ON(C(=O)c1cnccc1C(F)(F)F)C(C)C ; wanted: its pest or weed control at 2 ppm
OUTPUT: 0

INPUT: Recorded pest or weed control at 2 ppm for CC(C#N)NC(=O)c1cnccc1C(F)(F)F (stereo not drawn) , please?
OUTPUT: 100

INPUT: GET /values?readout=pest or weed control at 2 ppm&item= CC(C)n1nc(-c2cnccc2C(F)(F)F)oc1=O
OUTPUT: 100

INPUT: So what's the measured pest or weed control at 2 ppm for this one? O=c1nc(-c2cnccc2C(F)(F)F)os1
OUTPUT: 100

INPUT: I am curious: what pest or weed control at 2 ppm value has been reported for CN(C)CNC(=O)c1cnccc1C(F)(F)F ?
OUTPUT: 100

INPUT: Returns the measured pest or weed control at 2 ppm for the input compound. Input: CC(=O)CNC(=O)c1cnccc1C(F)(F)F
OUTPUT: 100

====

- Test system: Anopheles stephensi
- Protocol Description: 12 well plate knockdown test
- Format: in vivo
- Assay Conditions: 1 h, Rate 0.2 PPM, read-out: Anopheles stephensi 1 hour % KD
Experimental Endpoint: pest or weed control at 0.2 ppm (%)
Note: unit % is implicit; provide only the numeric part.

{"columns": ["Compound", "Result Units", "Reported"],
 "data": [
  ["COCCOC(=O)ON(C(=O)c1cnccc1C(F)(F)F)C(C)C [I.29]", "%", 20]
]}

INPUT: Find the measured pest or weed control at 0.2 ppm: item CS(=O)(=O)NC(=O)c1cnccc1C(F)(F)F [I.24] , target or system Anopheles stephensi.
OUTPUT: 40

INPUT: What pest or weed control at 0.2 ppm appears in the records for this compound with Anopheles stephensi? CCOC(=O)ON(C)C(=O)c1cnccc1C(F)(F)F [I.9]
OUTPUT: 20

INPUT: Observed pest or weed control at 0.2 ppm on Anopheles stephensi for FC(F)(F)c1ccncc1C1=NCCN1 [I.20] , please.
OUTPUT: 20

INPUT: Requested read-out pest or weed control at 0.2 ppm, target or system Anopheles stephensi, entry CC(C)n1nc(-c2cnccc2C(F)(F)F)oc1=O [I.7]
OUTPUT: 0

INPUT: Item CC(=O)CNC(=O)c1cnccc1C(F)(F)F [I.23] with Anopheles stephensi - pest or weed control at 0.2 ppm?
OUTPUT: 0

FYI, the data here is from patent US20170094972A1.
